sequences and their reported PBM E-score of 8-mer
Tested on: SpTbr T-box DNA-binding domain (GST fusion);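 note: protein at 200 nM in PBS on universal double-stranded arrays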
Sequence: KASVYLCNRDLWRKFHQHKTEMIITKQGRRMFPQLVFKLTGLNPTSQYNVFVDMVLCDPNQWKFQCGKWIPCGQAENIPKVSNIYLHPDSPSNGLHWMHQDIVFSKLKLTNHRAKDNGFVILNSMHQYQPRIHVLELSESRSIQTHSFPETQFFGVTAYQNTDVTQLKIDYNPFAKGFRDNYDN
Experiment: PBM E-score of 8-mer (E-score (dimensionless, -0.5 to 0.5)); Tbr is Tbrain of the sea star Patiria miniata (Pm) or the sea urchin Strongylocentrotus purpuratus (Sp); higher = stronger binding preference
Conditions: the construct has about 5 more residues each side
Whole data set: some 33,000 sequences, median “E-score (dimensionless, -0.5 to 0.5)” near -0.046, cut for the highest 2% near 0.36. The full list was thinned out, with the highest values kept by preference.
# print the numeric value only

Worked cases, answers included:
{"biopolymerSequence": "GTCACGCA", "PBM E-score of 8-mer": 0.279}
{"biopolymerSequence": "ACACGTGA", "PBM E-score of 8-mer": 0.283}
{"biopolymerSequence": "GACACCCC", "PBM E-score of 8-mer": 0.405}
{"biopolymerSequence": "AAACGTGG", "PBM E-score of 8-mer": 0.144}
{"biopolymerSequence": "AGCACCCC", "PBM E-score of 8-mer": 0.27}

stdin: Determine from records and report PBM E-score of 8-mer for `ACTGATGG`
stdout: -0.00902

stdin: Tell me PBM E-score of 8-mer reported for `GCTTAGGA`
stdout: -0.107

stdin: Please give measured PBM E-score of 8-mer of the following entry: `CCTCATAA`
stdout: -0.0692

stdin: Given the sequence `AGGCAGAC` , write its reported PBM E-score of 8-mer.
stdout: -0.227

stdin: Check the records and state PBM E-score of 8-mer for `AGTGAACA`
stdout: 0.175
